Tested on: Plasmodium berghei
protocol-notes: Luciferase/luciferin-expressing antifolate-resistant parasites were used to infect a culture of HepG2 cells that were pre-incubated with compounds. Infected hepatocytes emit light due to the luciferase reaction. Assay results are presented as the percent inhibition of light emission compared to control. […]
Format: functional
run-conditions: sporozoite, HEPG2TOX_HILL_SLOPE 10.9, HEPG2TOX_R_SQUARED 0.158, PBLUC_HILL_SLOPE 11.4, PBLUC_R_SQUARED 0.555, read-out: LUCIFERASE INFECTION ASSAY - IC50
measured-quantity: pIC50
// scale note: pIC50 = -log10(conc_M); give the bare number

// pIC50 lookup, key: N#CCCNS(=O)(=O)c1ccc(C(=O)Nc2ccc(Nc3ccccc3)cc2)cc1 5.51

Source of measurements: ChEMBL document CHEMBL4483862
